Test system: primary cultured mouse hepatocytes
Experiment: D-GalN-induced cytotoxicity in primary cultured mouse hepatocytes (MTT assay)
Conditions: Hepatocyte, read-out: Inhibition (%) of D-GalN-induced cytotoxicity
Each record here notes measured inhibition at 10 µM.
attribute_measured: inhibition at 10 µM (%)

{"columns": ["molecule", "experimental_target", "attribute_measured", "experimental_value"],
 "data": [
  ["COC(=O)CC1C(C)C(=O)C2(CC3(O)C4CC(=O)OC(c5ccoc5)C4(C)CCC3(O)O2)C(OC(=O)C(C)C)C1(C)C (stereo not shown) [compound 17, carapanolide A]", "primary cultured mouse hepatocytes", "inhibition at 10 µM", -8.3],
  ["CC1(C)C(=O)C=C[C@@]2(C)C1CC(=O)[C@]1(C)C2CC[C@@]2(C)[C@H](c3ccoc3)OC(=O)[C@H]3O[C@]321 (stereo partly shown)", "primary cultured mouse hepatocytes", "inhibition at 10 µM", -8.2],
  ["CC1(C)C(=O)C=C[C@@]2(C)C1C[C@@H](O)[C@]1(C)C2CC[C@@]2(C)[C@H](c3ccoc3)OC(=O)[C@H]3O[C@]321 (stereo partly drawn) [compound 4, 7-deacetoxy-7α-hydroxygedunin]", "primary cultured mouse hepatocytes", "inhibition at 10 µM", -6.3],
  ["CC(=O)O[C@@H]1CC2C(C)(C)C(=O)C=C[C@]2(C)C2CC[C@]3(C)C(=CC(=O)[C@@]3(O)c3ccoc3)[C@@]21C (stereo partly drawn) [compound 9, 17β-hydroxyazadiradione]", "primary cultured mouse hepatocytes", "inhibition at 10 µM", -4.1],
  ["C=C1[C@@H]2CC[C@@]3(C)[C@H](c4ccoc4)OC(=O)C[C@]13O[C@H]1CC(=O)C(C)(C)[C@H](CC(=O)OC)[C@]12C [compound 7, methyl angolensate]", "primary cultured mouse hepatocytes", "inhibition at 10 µM", -7.5],
  ["CCC(C)C(=O)OC1C2(OC(C)=O)CC3(O)C4=CC(=O)OC(c5ccoc5)C4(C)CCC3C(C)(C2=O)C(CC(=O)OC)C1(C)C (stereo not shown) [compound 10, Carapanolide C]", "primary cultured mouse hepatocytes", "inhibition at 10 µM", 3.4],
  ["CCC(=O)OC1C2(OC(C)=O)C(OC(C)=O)C3(C)CC24OC2(C)OC15C(CC(=O)OC)C1(C)CC(c6occc6C1=O)C5(O2)C41COC(=O)CC31 (stereo not shown) [compound 16, guianolide A]", "primary cultured mouse hepatocytes", "inhibition at 10 µM", 11],
  ["CCC(=O)OC1C2(O)C(OC(C)=O)C3(C)CC24OC2(C)OC15C1CC(=O)OC(c6ccoc6)C1(C)C(OC(C)=O)CC5(O2)C4(C)C3C(OC(C)=O)C(=O)OC (stereo not shown) [compound 14, Carapanolide Q]", "primary cultured mouse hepatocytes", "inhibition at 10 µM", -3.5],
  ["CC(=O)O[C@@H]1C[C@H]2C(C)(C)C(=O)C=C[C@]2(C)[C@H]2CC[C@@]3(C)[C@H](c4ccoc4)OC(=O)[C@H]4O[C@]43[C@@]21C", "primary cultured mouse hepatocytes", "inhibition at 10 µM", -3.9],
  ["CC(=O)O[C@@H]1C2C(C)(C)C(=O)C=C[C@]2(C)C2CC[C@@]3(C)[C@H](c4ccoc4)OC(=O)[C@H]4O[C@]43[C@]2(C)[C@@H]1OC(C)=O (stereo partly shown)", "primary cultured mouse hepatocytes", "inhibition at 10 µM", -1.9]
]}

meta.source: paper PMC4849045
